biological target: RARγ (Homo sapiens); construct: gal4 (fusion partner); expressed in transfected cells; host or cells: COS-7; assay: Transactivation assay for RAR gamma (gal4-RAR fusion, luciferase reporter, COS-7 cells); type: cell-based; details: ratio of test compound EC50 to that of atRA; inactive = no agonist action at the highest concentration tested
Sequence (P13631 185-419 limits assumed, species assumed): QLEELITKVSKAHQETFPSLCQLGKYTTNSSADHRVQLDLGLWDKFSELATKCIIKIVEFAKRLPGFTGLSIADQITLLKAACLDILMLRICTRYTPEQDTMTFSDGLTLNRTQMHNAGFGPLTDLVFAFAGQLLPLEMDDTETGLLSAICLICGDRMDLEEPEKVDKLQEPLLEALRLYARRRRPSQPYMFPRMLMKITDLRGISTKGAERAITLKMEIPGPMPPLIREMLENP
measuredParameter: RARγ activity ratio

>>> measuredresult("CCOc1c(Cl)cc(C(=O)Nc2ccc(C(=O)O)c(F)c2)cc1Cl")
"inactive"
>>> measuredresult("COCCOc1cc(C(=O)Nc2ccc(C(=O)O)c(F)c2)cc(Cl)c1OC")
5000
>>> measuredresult("O=C(O)c1ccc(NC(=O)c2cc(Cl)c(OCC3CC3)c(Cl)c2)cc1")
"inactive"
